method summary: Metabolic stability in mouse liver microsomes assessed as compound remaining at 0.5 uM incubated for10 mins in presence of NADPH by LC-MS/MS analysis
Type: ADME, Microsome
run conditions: read-out: Stability
Below: a set of entries, each annotated with reported remaining at 10 min, 0.5 µM.
Quick note: give the figure in %, leave out the unit.

Worked examples, 2 compounds total:
{"smiles notation": "CO[C@@H]1[C@@H](n2cc(-c3cc(F)c(F)c(F)c3)nn2)[C@@H](O)[C@@H](CO)O[C@H]1S[C@@H]1COC[C@H](n2cc(-c3cncnc3)nn2)[C@H]1O", "output unit": "%", "remaining at 10 min, 0.5 µM": 89}
{"smiles notation": "CO[C@@H]1[C@@H](n2cc(-c3cc(F)c(F)c(F)c3)nn2)[C@@H](O)[C@@H](CO)O[C@H]1S[C@@H]1COC[C@H](n2cc(-c3cccc(O)c3)nn2)[C@H]1O", "output unit": "%", "remaining at 10 min, 0.5 µM": 92}

// switching to the query compound
Prompt line: Consider the compound CO[C@@H]1[C@@H](n2cc(-c3cc(F)c(F)c(F)c3)nn2)[C@@H](O)[C@@H](CO)O[C@H]1S[C@@H]1COC[C@H](n2cc(-c3cccc(F)c3)nn2)[C@H]1O and give its recorded remaining at 10 min, 0.5 µM.
Response line: 72

Each recorded value in this set is attributed to ChEMBL document CHEMBL5036315.
